Assay: Maximum time taken to reach mean plasma concentration, measured in rat
Type: ADME, organism-based
What Tmax was measured for each of the following?

query: Tmax lookup needed for `Cc1ccc(Sc2cncc3sc(C(N)=O)cc23)cc1` , thanks.
result: 15 min

query: Queued: `Cc1ccc(Sc2cncc3sc(C(=O)O)cc23)cc1`
result: 19.8 min

query: // repeat for Cc1ccc([S+]([O-])c2cncc3sc(C(N)=O)cc23)cc1 (stereo not drawn) and report
result: 25.2 min

###

Experiment: Area under curve against time (0-8 hr) in rat
Format: ADME, organism-based
Parameters: time < 8 hr
Settings: in vivo
Exercise: state measured AUC at 8 h for each of the compounds provided.
Please give a number only; it is taken to be in µg·h/mL.

query: Name the reported AUC at 8 h value associated with the compound `Cc1ccc(Sc2cncc3sc(C(=O)O)cc23)cc1`
result: 2.95

query: Please answer likewise for `Cc1ccc(Sc2cncc3sc(C(N)=O)cc23)cc1`
result: 0.131

query: Cool, now Cc1ccc([S+]([O-])c2cncc3sc(C(N)=O)cc23)cc1 (stereo not drawn)
result: 1.25

###

Assay: In vitro cellular toxicity against human umbilical vein endothelial cells (HUVEC) in MTS assay
Format: cell-based
Answer each item with its documented pIC50.
Scale for pIC50: -log10 of concentration given in mol/L; no unit attached.

query: Find the recorded pIC50 belonging to `NC(=O)c1cc2c(Sc3ccc(C(F)(F)F)cc3)cncc2s1` and report it.
result: 4.02

query: # repeat for `Cc1ccc(Sc2cncc3sccc23)cc1`
result: 5.24

query: Same question for `CCc1cc2c(NCc3ccccc3)ncnc2s1` please.
result: 4.14

query: Further, for `Cc1ccc(Sc2cncc3sc(C(=O)NN)cc23)cc1` ?
result: 4.09

query: What about `Cc1ccc(Sc2ccnc3sc(C(N)=O)cc23)cc1` ?
result: 4.36

query: Entry `Cc1ccc(Sc2cncc3sc(C(N)=O)cc23)cc1` please
result: 3.82

query: Then `CCc1cc2c(Sc3nnc(N)s3)ncnc2s1` ?
result: 4.02

query: Thanks! And `Cc1cccc(Sc2cncc3sc(C(N)=O)cc23)c1` ?
result: 4.02

query: Queued: `Cc1ccc(Sc2cncc3sc(/C=N/OCC(=O)O)cc23)cc1`
result: 4.08

query: Param item: `Cc1ccc(Sc2cncc3sc(C(=N)S)cc23)cc1`
result: 4.29

query: Follow-up item: `CCc1cc2c(Sc3nnc(C)s3)ncnc2s1`
result: 4.29

query: And `Cc1ccc(Sc2cncc3sc(C(=O)NCCCN4CCOCC4)cc23)cc1` ?
result: 4.17

###

Assay: In vitro cellular toxicity against human umbilical vein endothelial cells (HUVEC) in MTS assay
Format: cell-based
Recorded Endpoint: IC50

query: Need IC50 of `CCc1cc2c(SCc3ccccc3)ncnc2s1` , thanks.
result: > 100 µM

query: Please do the same for `Cc1ccc(Sc2cncc3sc(C(N)=O)cc23)c(C)c1` as well.
result: > 10 µM

query: Subsequent entry: `NC(=O)c1cc2c(Sc3ccccn3)cncc2s1`
result: > 100 µM

query: Do the same for `CCc1cc2c(Cl)ncnc2s1` please
result: > 100 µM

query: Lookup `CCc1cc2c(O)ncnc2s1`
result: > 100 µM

query: One more molecule: `Cc1ccc(Sc2cncc3sc(C(N)=O)cc23)cc1C`
result: > 100 µM
